Property: pSTAT3 MFI, B cells, 0.001 nM (unstimulated 1193.5); scope: individual binders
Target: T1, IL10Rα/IL2Rγ receptor (human, UniProt Q13651 22-578; P31785 23-369)
T1 sequence (looked up) 1: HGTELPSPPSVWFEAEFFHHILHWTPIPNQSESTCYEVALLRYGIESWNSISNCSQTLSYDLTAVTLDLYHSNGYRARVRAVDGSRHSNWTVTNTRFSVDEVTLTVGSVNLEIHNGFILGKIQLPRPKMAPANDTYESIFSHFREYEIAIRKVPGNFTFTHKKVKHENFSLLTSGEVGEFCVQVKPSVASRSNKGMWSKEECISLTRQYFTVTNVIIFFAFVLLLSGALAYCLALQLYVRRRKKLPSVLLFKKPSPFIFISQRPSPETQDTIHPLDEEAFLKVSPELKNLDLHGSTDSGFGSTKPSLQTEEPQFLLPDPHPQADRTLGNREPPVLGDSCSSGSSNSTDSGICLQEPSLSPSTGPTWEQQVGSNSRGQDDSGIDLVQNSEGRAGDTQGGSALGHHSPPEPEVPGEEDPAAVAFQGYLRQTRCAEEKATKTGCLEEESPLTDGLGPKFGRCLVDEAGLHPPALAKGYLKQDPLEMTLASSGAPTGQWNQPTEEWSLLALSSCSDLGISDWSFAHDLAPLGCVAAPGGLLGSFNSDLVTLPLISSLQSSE
T1 sequence (looked up) 2: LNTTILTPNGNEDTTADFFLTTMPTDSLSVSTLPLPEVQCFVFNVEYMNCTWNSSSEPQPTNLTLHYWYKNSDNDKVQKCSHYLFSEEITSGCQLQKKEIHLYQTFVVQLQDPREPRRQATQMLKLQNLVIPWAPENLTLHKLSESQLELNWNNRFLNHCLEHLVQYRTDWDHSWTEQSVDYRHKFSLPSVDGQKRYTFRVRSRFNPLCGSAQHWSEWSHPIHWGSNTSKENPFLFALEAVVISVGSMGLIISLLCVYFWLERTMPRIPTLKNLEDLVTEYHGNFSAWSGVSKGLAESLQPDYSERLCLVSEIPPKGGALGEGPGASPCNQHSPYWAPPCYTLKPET
Assay: cell-based or functional assay
# output: bare number, implied unit MFI

(Q) pSTAT3 MFI, B cells, 0.001 nM (unstimulated 1193.5) lookup needed for DR395(DR229-DR239) (bispecific antibody) QVQLQESGGGLVQPGGSLRLSCTASGFSFSSYPMTWARQAPGKGLEWVSTIASDGGSTAYAASVEGRFTISRDNAKSTLYLQLNSLKTEDTAMYYCTKGYGDGTPAPGQGTQVTVSSGGGSQVQLQESGGGSVQAGGSLRLSCTVSGYTYSSNCMGWFRQAPGKEREGVATIYTGGGNTYYADSVKGRFTISQDNAKNTVYLQMNNLKPEDTAMYYCAAEPLSRVYGGSCPTPTFDYWGQGTQVTVSSASHHHHHH , thanks.
(A) 1130

(Q) Then this binder: DR465(DR240-DR231) (bispecific antibody) QVQLQESGGGSVQAGGSLRLSCGASGYTYSSYCMGWFRQVPGKEREGVAVIDSDGSTSYADSVKGRFTISKDNGKNTLYLQMNSLKPEDTAMYYCAADLGHYRPPCGVLYLGMDYWGKGTQVTVSSGGGSQVQLQESGGGSVQAGGSLRLSCTASGFTFDDREMNWYRQAPGNECELVSTISSDGSTYYADSVKGRFTISQDNAKNTVYLQMDSVKPEDTAVYYCAADFMIAIQAPGAGCWGQGTQVTVSSASHHHHHH
(A) 1100

(Q) Then DR471(DR241-DR231) (bispecific antibody) QVQLQESGGGSVQAGGSLRLSCAASGYSNCSYDMTWYRQAPGKEREFVSAIHSDGSTRYADSVKGRFFISQDNAKNTVYLQMNSLKPEDTAMYYCKTDPLHCRAHGGSWYSVRANYWGQGTQVTVSSGGGSQVQLQESGGGSVQAGGSLRLSCTASGFTFDDREMNWYRQAPGNECELVSTISSDGSTYYADSVKGRFTISQDNAKNTVYLQMDSVKPEDTAVYYCAADFMIAIQAPGAGCWGQGTQVTVSSASHHHHHH ?
(A) 1120

(Q) Would you kindly repeat that for DR441(DR236-DR231) (bispecific antibody) QVQLQESGGGSVQAGGSLRLSCAASRFTYSSYCMGWFRQAPGKEREGVASIDSDGSTSYTDSVKGRFTISKDNAKNTLYLQMNSLKPEDTAMYYCALDLMSTVVPGFCGFLLSAGMDYWGKGTQVTVSSGGGSQVQLQESGGGSVQAGGSLRLSCTASGFTFDDREMNWYRQAPGNECELVSTISSDGSTYYADSVKGRFTISQDNAKNTVYLQMDSVKPEDTAVYYCAADFMIAIQAPGAGCWGQGTQVTVSSASHHHHHH ?
(A) 1130
